molecular target: Cyclin-dependent kinase 4/cyclin D1 (Homo sapiens); test: Inhibition of Cyclin-dependent kinase 4-cyclin D1; assay type: protein-complex assay
Sequence (P11802 whole entry): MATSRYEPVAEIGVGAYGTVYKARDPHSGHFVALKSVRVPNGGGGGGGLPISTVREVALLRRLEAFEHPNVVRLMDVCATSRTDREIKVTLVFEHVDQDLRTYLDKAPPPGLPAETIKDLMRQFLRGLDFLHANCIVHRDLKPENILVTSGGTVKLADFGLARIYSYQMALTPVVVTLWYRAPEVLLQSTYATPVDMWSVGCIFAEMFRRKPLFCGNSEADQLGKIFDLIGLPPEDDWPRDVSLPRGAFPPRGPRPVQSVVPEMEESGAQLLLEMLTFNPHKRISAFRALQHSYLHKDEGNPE
Sequence (P24385 whole entry, further chain): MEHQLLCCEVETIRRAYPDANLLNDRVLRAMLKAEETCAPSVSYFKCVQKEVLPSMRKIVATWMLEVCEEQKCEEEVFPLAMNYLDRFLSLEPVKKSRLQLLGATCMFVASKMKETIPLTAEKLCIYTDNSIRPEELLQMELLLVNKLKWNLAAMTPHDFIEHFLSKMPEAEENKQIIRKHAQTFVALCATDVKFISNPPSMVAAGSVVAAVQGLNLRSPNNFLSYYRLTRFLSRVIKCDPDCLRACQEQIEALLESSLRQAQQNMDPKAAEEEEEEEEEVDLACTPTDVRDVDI
This listing pairs compounds with measured IC50.

These recorded examples may help you get a feel for the data.
Cc1nc2c(c(Cc3ccccc3)nn2-c2c(Cl)cc(Cl)cc2Cl)c(=O)[nH]1
> 48 µM
CSc1nn(-c2ccccc2)c2nc(C)[nH]c(=O)c12
> 180 µM

Give its IC50 value. Item: `CCOC(=O)Cc1cccc(Cc2nc3c(c(CC)nn3-c3c(Cl)cc(Cl)cc3Cl)c(=O)[nH]2)c1`
> 1.9 µM

====

target: Cyclin-dependent kinase 4/cyclin D1 (Homo sapiens); assay: Inhibition of Cyclin-dependent kinase 4-cyclin D1; format: protein-complex assay
pIC50: −log10 of the molar value.
ENDPOINT: pIC50

These recorded examples may help you get a feel for the data.
CSc1nn(-c2c(Cl)cc(Cl)cc2Cl)c2nc(CCN(C)C(=O)OC(C)(C)C)[nH]c(=O)c12
< 4.32
CSc1nn(-c2c(Cl)cc(Cl)cc2Cl)c2nc(CN(C)C(=O)OC(C)(C)C)[nH]c(=O)c12
< 4.30
CCc1nn(-c2c(Cl)cc(Cl)cc2Cl)c2nc(CC(C)C)[nH]c(=O)c12
< 5.20

Lab note: next compound to report on.
Give its pIC50 value. Item: `CSc1nn(-c2ccccn2)c2nc(C)[nH]c(=O)c12`
< 3.74

The reported measurements were obtained from ChEMBL document CHEMBL1138844.
